- TARGET_OR_SYSTEM: Tyrosine-protein kinase ABL1 (Homo sapiens)
- EXPERIMENTAL_SETUP: at 1 µM
READOUT_LABEL: residual activity (%)
# unit: % | format: bare number

Solved entries (count: 5):
1) O=C(c1ccccc1)c1ccc(N2CCOCC2)cc1O
94
2) O=C1Cc2c([nH]c3ccc(Br)cc23)-c2ccccc2N1
64
3) CC(C)(C)n1nc(Cc2cccc3ccccc23)c2c(N)ncnc21
87
4) CCCC(=O)Oc1ccc2[nH]c(C(=O)c3cc4ccccc4[nH]3)cc2c1
102
5) O=C1Nc2ccc(Cl)cc2/C1=C/c1cc(Cl)c(O)c(Cl)c1
77

Attention now shifts to the item below.
Req: Give the reported residual activity for this compound. CCN(CC)CCNC(=O)c1c(C)[nH]c(/C=C2\C(=O)Nc3ccc(Cl)cc32)c1C
Resp: 23

###

- TARGET_OR_SYSTEM: Ephrin type-A receptor 8 (Homo sapiens) (UniProt P29322)
- Sequence (P29322 whole entry): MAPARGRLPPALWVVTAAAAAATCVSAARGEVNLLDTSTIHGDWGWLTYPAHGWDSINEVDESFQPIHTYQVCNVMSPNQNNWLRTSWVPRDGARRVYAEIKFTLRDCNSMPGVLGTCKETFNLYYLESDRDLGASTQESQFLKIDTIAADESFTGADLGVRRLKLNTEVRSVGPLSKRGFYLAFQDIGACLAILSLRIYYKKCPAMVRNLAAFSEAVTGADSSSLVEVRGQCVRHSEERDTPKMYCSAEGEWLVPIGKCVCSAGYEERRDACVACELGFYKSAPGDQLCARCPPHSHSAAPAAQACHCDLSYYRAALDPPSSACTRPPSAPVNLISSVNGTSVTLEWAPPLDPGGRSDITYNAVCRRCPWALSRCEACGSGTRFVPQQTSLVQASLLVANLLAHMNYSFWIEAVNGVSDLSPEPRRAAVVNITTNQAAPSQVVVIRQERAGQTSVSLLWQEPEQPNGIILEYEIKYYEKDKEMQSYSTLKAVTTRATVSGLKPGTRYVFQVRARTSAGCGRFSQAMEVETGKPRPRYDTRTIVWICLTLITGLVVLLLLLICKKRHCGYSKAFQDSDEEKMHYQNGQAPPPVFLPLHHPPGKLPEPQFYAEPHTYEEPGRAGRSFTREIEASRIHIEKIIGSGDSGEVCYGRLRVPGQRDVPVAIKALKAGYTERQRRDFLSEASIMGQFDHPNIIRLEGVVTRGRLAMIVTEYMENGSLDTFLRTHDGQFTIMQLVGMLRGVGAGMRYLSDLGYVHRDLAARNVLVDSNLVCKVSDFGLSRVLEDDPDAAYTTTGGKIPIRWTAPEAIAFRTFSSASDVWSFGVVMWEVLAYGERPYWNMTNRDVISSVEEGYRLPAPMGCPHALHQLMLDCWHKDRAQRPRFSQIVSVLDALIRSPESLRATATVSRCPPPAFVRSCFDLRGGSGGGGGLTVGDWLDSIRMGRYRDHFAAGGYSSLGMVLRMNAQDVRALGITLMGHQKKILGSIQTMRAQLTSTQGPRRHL
- EXPERIMENTAL_SETUP: at 1 µM
READOUT_LABEL: residual activity (%)
# unit: % | format: bare number

Solved entries (count: 5):
1) O=C(CCCc1ccc(-c2ccccc2F)cc1)Nc1ccc(O)cc1
103
2) Nc1ncnc2c1c(-c1ccc(Oc3ccccc3)cc1)cn2C1CCCC1
84
3) O=C(NC(NC(=S)Nc1ccc(F)c([N+](=O)[O-])c1)C(Cl)(Cl)Cl)C(c1ccccc1)c1ccccc1 (stereo unspecified)
103
4) Nc1ncnc2c1cnn2-c1ccccc1
100
5) CC(C)(C)c1nc2c3ccc(F)cc3c3c(=O)[nH]ccc3c2[nH]1
103

Attention now shifts to the item below.
Req: Give the reported residual activity for this compound. CC(C)(C)n1nc(Cc2cccc3ccccc23)c2c(N)ncnc21
Resp: 33

###

- TARGET_OR_SYSTEM: Serine/threonine-protein kinase BRSK1 (Homo sapiens) (UniProt Q8TDC3)
- Sequence (Q8TDC3 whole entry): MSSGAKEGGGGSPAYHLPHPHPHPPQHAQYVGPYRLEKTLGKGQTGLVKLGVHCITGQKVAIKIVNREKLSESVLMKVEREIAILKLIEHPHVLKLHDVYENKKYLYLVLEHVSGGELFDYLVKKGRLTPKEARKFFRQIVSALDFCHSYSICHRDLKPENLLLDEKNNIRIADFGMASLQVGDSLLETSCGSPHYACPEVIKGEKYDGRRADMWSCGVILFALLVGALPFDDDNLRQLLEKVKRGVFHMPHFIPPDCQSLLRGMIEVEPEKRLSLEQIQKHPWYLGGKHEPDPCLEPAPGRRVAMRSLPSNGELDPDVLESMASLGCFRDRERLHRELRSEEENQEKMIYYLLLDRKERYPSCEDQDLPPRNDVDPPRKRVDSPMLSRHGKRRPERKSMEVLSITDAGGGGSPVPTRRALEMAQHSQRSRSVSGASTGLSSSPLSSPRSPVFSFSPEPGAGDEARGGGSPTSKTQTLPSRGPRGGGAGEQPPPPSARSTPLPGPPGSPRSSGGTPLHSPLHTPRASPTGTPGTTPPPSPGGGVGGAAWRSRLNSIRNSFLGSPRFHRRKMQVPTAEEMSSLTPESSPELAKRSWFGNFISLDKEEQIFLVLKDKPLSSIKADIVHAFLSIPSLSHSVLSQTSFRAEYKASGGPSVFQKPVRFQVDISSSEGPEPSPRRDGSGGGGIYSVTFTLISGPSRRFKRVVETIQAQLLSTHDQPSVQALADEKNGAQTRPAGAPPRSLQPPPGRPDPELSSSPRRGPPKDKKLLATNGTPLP
- EXPERIMENTAL_SETUP: at 1 µM
Entries annotated with measured residual activity
# unit: % | format: bare number

Solved entries (count: 5):
1) Cn1sc(=O)n(Cc2ccccc2)c1=O
86
2) COc1cc2nccc(Oc3ccc(NC(=O)Nc4cc(C)on4)c(Cl)c3)c2cc1OC
65
3) CC(C)(C)n1nc(Cc2cccc3ccccc23)c2c(N)ncnc21
90
4) Nc1ncnc2c1cnn2-c1ccccc1
23
5) O=C1NC(=O)c2c1c1c3ccccc3[nH]c1n1cncc21
32

Attention now shifts to the item below.
Req: Give the reported residual activity for this compound. N#C/C(=C1/Nc2ccccc2S1)c1ccnc(NCCc2cccnc2)n1
Resp: 80

###

- TARGET_OR_SYSTEM: Serine/threonine-protein kinase MRCK alpha (Homo sapiens) (UniProt Q5VT25)
- Sequence (Q5VT25 whole entry): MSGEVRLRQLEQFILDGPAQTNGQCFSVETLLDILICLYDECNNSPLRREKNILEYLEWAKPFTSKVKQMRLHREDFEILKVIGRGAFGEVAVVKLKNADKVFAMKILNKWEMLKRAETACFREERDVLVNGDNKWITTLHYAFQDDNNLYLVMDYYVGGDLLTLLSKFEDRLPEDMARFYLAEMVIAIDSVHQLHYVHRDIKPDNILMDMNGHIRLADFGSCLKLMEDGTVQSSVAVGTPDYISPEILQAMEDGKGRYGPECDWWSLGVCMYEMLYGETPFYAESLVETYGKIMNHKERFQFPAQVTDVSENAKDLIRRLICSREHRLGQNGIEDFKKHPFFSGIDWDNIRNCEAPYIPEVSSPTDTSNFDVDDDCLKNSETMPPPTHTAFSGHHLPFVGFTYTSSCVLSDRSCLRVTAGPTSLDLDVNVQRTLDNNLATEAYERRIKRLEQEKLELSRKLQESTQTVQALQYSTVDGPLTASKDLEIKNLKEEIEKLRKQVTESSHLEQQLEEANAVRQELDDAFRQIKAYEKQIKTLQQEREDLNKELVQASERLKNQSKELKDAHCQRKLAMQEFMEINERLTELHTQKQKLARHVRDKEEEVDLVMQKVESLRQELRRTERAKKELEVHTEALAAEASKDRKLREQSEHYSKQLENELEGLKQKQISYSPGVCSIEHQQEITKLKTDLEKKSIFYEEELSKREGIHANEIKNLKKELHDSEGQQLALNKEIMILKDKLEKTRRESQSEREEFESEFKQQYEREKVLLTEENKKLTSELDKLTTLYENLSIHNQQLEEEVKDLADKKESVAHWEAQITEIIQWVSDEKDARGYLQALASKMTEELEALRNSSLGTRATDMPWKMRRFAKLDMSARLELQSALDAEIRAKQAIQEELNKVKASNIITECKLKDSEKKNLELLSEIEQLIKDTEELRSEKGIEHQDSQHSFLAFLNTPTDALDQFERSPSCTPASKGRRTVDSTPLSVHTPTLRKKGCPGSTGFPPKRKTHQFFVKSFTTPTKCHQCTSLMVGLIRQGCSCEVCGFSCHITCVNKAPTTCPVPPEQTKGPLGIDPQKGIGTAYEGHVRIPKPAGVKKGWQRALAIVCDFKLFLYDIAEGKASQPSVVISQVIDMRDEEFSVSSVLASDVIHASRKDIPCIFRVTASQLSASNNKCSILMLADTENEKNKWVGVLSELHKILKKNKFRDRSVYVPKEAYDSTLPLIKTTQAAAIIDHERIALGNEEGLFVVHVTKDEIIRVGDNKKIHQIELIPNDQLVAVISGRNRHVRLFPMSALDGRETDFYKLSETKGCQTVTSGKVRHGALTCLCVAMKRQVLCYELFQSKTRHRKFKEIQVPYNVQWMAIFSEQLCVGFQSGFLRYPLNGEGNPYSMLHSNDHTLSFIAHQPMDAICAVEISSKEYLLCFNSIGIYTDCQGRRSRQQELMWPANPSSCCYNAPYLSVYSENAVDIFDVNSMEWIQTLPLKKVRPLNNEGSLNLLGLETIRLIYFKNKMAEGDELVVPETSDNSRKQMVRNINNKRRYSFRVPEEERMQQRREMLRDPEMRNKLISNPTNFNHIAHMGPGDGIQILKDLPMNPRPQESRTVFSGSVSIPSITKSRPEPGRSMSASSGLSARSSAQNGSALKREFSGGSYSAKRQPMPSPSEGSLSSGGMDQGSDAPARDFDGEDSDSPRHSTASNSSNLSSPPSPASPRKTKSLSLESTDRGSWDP
- EXPERIMENTAL_SETUP: at 10 µM
Entries annotated with measured residual activity

1. Cn1sc(=O)n(Cc2ccccc2)c1=O
92%
2. N#C/C(=C\c1ccc(O)c(O)c1)C(=O)NCc1ccccc1
87%
3. O=C1C(Cl)=C(N2C(=O)CCC2=O)C(=O)c2ccccc21
94%
4. COc1ccc2c(c1)c(C1=C(c3c[nH]c4ccccc34)C(=O)NC1=O)cn2CCCN(C)C
80%
5. O=C1Nc2ccc(Cl)cc2/C1=C/c1cc(Cl)c(O)c(Cl)c1
96%

Attention now shifts to the item below.
Req: Give the reported residual activity for this compound. Cn1c2ccccc2c2c3c(c4c5ccccc5n(CCC#N)c4c21)CNC3=O
Resp: 79%
